Assay: Oral bioavailability in Sprague-Dawley rat at 10 mg/kg measured up to 24 hrs by LC-MS/MS analysis
Assay type: ADME, organism-based
Settings: in vivo
quantity.measured: bioavailability
Please answer in the form of a number followed by its unit of measurement.

Asked: Recall and state the measured bioavailability for `CN1CCN(c2ccc(Nc3ncc(Cl)c(Nc4cccc(C(F)(F)F)c4)n3)nc2)CC1` .
Given back: 16.7%

----------
Test: Tmax in Sprague-Dawley rat at 10 mg/kg, po measured up to 24 hrs by LC-MS/MS analysis
Assay type: ADME, organism-based
Settings: in vivo
quantity.measured: Tmax (h)
Provide only the numeric value, understood in h.

Asked: Recall and state the measured Tmax for `CN1CCN(c2ccc(Nc3ncc(Cl)c(Nc4cccc(C(F)(F)F)c4)n3)nc2)CC1` .
Given back: 2

----------
For each of the molecules below, state its logD.
Assay: Octanol/water partition coefficient, logP of compound at pH 7.4
Assay type: physicochemical

Asked: Recall and state the measured logD for `FC(F)(F)c1cccc(Nc2nc(Nc3ccccn3)ncc2Cl)c1` .
Given back: 1.4

Asked: Recall and state the measured logD for `FC(F)(F)Oc1cccc(Nc2nc(Nc3ccccc3)ncc2Cl)c1` .
Given back: 2.65

Asked: Recall and state the measured logD for `CN1CCN(c2ccc(Nc3ncc(Cl)c(Nc4cccc(C(F)(F)F)c4)n3)cn2)CC1` .
Given back: 1.61

Asked: Recall and state the measured logD for `CCN1CCN(c2ccc(Nc3ncc(Cl)c(Nc4cccc(C(F)(F)F)c4)n3)nc2)CC1` .
Given back: 2.18

Asked: Recall and state the measured logD for `CN1CCN(c2ncc(Nc3ncc(Cl)c(Nc4cccc(C(F)(F)F)c4)n3)cn2)CC1` .
Given back: 1.89

Asked: Recall and state the measured logD for `CN1CCN(c2ccc(Nc3ncc(Cl)c(Nc4cccc(C(F)(F)F)c4)n3)nc2)CC1` .
Given back: 1.87

Asked: Recall and state the measured logD for `FC(F)(F)c1cccc(Nc2nc(Nc3cncnc3)ncc2Cl)c1` .
Given back: 2.01

Asked: Recall and state the measured logD for `FC(F)(F)c1cccc(Nc2nc(Nc3cccnc3)ncc2Cl)c1` .
Given back: 1.26

Asked: Recall and state the measured logD for `NC1CCN(c2ccc(Nc3ncc(Cl)c(Nc4cccc(C(F)(F)F)c4)n3)nc2)CC1` .
Given back: 0.44

Asked: Recall and state the measured logD for `FC(F)(F)c1cccc(Nc2nc(Nc3ccc(-c4ccsc4)cn3)ncc2Cl)c1` .
Given back: 2.03

Asked: Recall and state the measured logD for `CN(C)C1CCN(c2ccc(Nc3ncc(Cl)c(Nc4cccc(C(F)(F)F)c4)n3)nc2)CC1` .
Given back: 2.01

Asked: Recall and state the measured logD for `FC(F)(F)c1cccc(Nc2nc(Nc3ccccc3)ncc2Cl)c1` .
Given back: 2.46

Asked: Recall and state the measured logD for `FC(F)(F)c1cccc(Nc2nc(Nc3cccnn3)ncc2Cl)c1` .
Given back: 2.26

Asked: Recall and state the measured logD for `CN1CCN(c2ccc(Nc3ncc(Cl)c(Nc4cccc(C(F)(F)F)c4)n3)cc2)CC1` .
Given back: 1.46

Asked: Recall and state the measured logD for `FC(F)(F)c1cccc(Nc2nc(Nc3ccc(N4CCNCC4)cn3)ncc2Cl)c1` .
Given back: 1.25

Asked: Recall and state the measured logD for `CN1CCN(c2ccc(Nc3ncc(Cl)c(Nc4cccc(C(F)(F)F)c4)n3)nn2)CC1` .
Given back: 1.26
